tgt: human muscarinic acetylcholine M3 receptor (M3-ACh) (Homo sapiens)
Sequence (P20309 whole entry): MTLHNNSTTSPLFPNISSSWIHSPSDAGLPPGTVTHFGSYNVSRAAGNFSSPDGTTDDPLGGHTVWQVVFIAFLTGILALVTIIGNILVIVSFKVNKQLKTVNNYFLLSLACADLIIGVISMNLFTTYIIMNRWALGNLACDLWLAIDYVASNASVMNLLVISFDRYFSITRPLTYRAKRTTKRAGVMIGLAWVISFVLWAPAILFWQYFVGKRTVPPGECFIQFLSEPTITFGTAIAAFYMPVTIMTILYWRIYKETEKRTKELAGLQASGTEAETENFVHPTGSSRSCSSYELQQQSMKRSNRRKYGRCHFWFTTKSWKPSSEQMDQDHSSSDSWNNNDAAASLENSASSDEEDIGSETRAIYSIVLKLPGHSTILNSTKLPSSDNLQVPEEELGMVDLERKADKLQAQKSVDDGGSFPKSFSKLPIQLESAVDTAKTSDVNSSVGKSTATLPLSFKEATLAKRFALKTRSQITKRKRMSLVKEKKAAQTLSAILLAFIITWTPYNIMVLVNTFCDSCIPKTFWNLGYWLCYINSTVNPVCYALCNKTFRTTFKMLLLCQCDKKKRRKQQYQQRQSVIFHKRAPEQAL
pIC50: −log10 of the molar value.
Decision: pIC50 compared against 8; not below it gives Yes, below it gives No.

> print(dat)
                                   compound  cat
1  CN1CC[C@@H](OC(=O)[C@](C)(c2ccccc2)C2CCCC2)C1 [Example 4a]  Yes
2  C[C@@](C(=O)O[C@@H]1CCC[N+](C)(C)C1)(c1ccccc1)C1CCCC1 [Example 5]  Yes
3  CN1CC[C@H](OC(=O)[C@@](C)(c2ccccc2)C2CCCC2)C1 [Example 1f]   No
4  C[C@@](C(=O)O[C@H]1CCC[N+](C)(C)C1)(c1ccccc1)C1CCCC1 [Example 6]   No
5  CN1CC[C@H](OC(=O)[C@](C)(c2ccccc2)C2CCCC2)C1 [Example 3c]  Yes
